- procedureText: The time for complete recovery of the AVP effect was measured
- Assay type: ADME
*1 amine or outer side, *2 acyl side, *3 side chain or, on linkers, in order; H or OH if unused. Where a SMILES comes first, the peptide text is derived from it. Bridges are numbered along the chain shown (N, C = ends). X1 = CC(C)(C)C1CCC(CC(=O)[*:1])(S[*:2])CC1; X2 = CC1CCC(CC(=O)[*:1])(S[*:2])CC1
Quick reference: Time of the listed items.

compound | result
COc1ccc(C[C@@H]2NC(=O)CC3(CCC(C)CC3)SSC[C@@H](C(=O)N3CCC[C@H]3C(=O)N[C@@H](CCCN=C(N)N)C(=O)NCC(N)=O)NC(=O)[C@H](CC(N)=O)NC(=O)[C@H](CCC(N)=O)NC(=O)[C@H](Cc3ccccc3)NC2=O)cc1 (some centres not stated) (Y(Me)FQNCPRG-NH2; linker N-5 via X2) | > 140 min

# context switch: different compound, same Time
Value of Time reported for the compound COc1ccc(C[C@@H]2NC(=O)CC3(CCC(C(C)(C)C)CC3)SSC[C@@H](C(=O)N3CCC[C@H]3C(=O)N[C@@H](CCCN=C(N)N)C(=O)NCC(N)=O)NC(=O)[C@H](CC(N)=O)NC(=O)[C@H](CCC(N)=O)NC(=O)[C@H](Cc3ccccc3)NC2=O)cc1 (some centres not stated) (Y(Me)FQNCPRG-NH2; linker N-5 via X1) is > 115 min
